Settings: in methanol, 333.15 K
quantity_measured: solubility (mole fraction)

[[record]]
compound = "COc1ccc2nc(S(=O)Cc3ncc(C)c(OC)c3C)[nH]c2c1 (stereo unspecified)"
quantity_measured = "solubility (mole fraction)"
assay_result = 0.0216


* * *

Conditions: in water, 313.15 K
quantity_measured: solubility (mole fraction)

[[record]]
compound = "COc1ccc2nc(S(=O)Cc3ncc(C)c(OC)c3C)[nH]c2c1 (stereo unspecified)"
quantity_measured = "solubility (mole fraction)"
assay_result = 0.000165


* * *

Conditions: in ethyl acetate, 288.15 K
quantity_measured: solubility (mole fraction)

[[record]]
compound = "COc1ccc2nc(S(=O)Cc3ncc(C)c(OC)c3C)[nH]c2c1 (stereo unspecified)"
assay_result = 0.00134

